Values were extracted from ChEMBL document CHEMBL1140462.

test system: A549; assay: Cytotoxicity against human A549 cells by SRB assay; type: functional, cell-based
measuredAttribute: IC50 (µM)
The response must be a number in µM with no trailing unit.

Past entries and their recorded results:
>>> assayvalue("CCCOC1c2ccccc2-c2c1c1cc(C)ccc1c(=O)n2Cc1ccc(OC)cc1 (stereo unspecified)")
3.45
>>> assayvalue("CCCCCOC1c2ccccc2-c2c1c1cc(C)ccc1c(=O)n2C (stereo unspecified)")
16.2
>>> assayvalue("COc1ccc(Cn2c3c(c4cc(C)ccc4c2=O)Cc2ccccc2-3)cc1")
51
>>> assayvalue("CCOC1c2ccccc2-c2c1c1cc(C)ccc1c(=O)n2C (stereo unspecified)")
90

Here is the next item to consider.
Q) Check the records and state IC50 for CCCCOC1c2ccccc2-c2c1c1cc(C)ccc1c(=O)n2C (stereo unspecified)
A) 110

* * *

biological target: DNA topoisomerase 1 (Homo sapiens) (UniProt P11387); test: Inhibition of topoisomerase 1 by supercoiled DNA unwinding method relative to camptothecin; type: functional
Sequence (P11387 whole entry): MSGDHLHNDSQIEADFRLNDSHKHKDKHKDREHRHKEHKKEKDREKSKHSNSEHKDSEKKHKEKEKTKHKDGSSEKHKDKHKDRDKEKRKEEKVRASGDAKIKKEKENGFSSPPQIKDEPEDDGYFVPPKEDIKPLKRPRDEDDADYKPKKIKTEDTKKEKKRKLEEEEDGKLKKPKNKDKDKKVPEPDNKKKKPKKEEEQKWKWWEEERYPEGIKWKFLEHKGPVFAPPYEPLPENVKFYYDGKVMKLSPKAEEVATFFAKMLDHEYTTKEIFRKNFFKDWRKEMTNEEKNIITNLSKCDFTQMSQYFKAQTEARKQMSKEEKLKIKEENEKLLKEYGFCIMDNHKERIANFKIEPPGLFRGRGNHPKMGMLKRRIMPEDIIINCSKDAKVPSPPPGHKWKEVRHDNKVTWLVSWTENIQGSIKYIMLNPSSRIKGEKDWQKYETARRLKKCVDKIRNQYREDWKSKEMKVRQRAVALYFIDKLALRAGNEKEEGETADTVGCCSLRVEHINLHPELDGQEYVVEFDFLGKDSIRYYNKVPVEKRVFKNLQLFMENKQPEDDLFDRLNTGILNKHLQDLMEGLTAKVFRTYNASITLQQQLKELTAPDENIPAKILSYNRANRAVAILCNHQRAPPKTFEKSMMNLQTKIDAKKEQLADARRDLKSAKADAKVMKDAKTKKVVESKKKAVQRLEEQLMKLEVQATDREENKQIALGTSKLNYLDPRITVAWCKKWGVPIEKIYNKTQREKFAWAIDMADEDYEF
Calls of active or inactive are those of the source. The calls are words filed in the database; no cut-off is given here.
measuredAttribute: Activity

>>> assayvalue("CC[C@@]1(O)C(=O)OCc2c1cc1n(c2=O)Cc2cc3ccccc3nc2-1")
"Active"
>>> assayvalue("COc1ccc(Cn2c3c(c4cc(C)ccc4c2=O)C(OC(C)C)c2ccccc2-3)cc1 (centres undefined)")
"Active"
>>> assayvalue("CCCOC1c2ccccc2-c2c1c1cc(C)ccc1c(=O)n2Cc1ccc(OC)cc1 (centres undefined)")
"Active"
>>> assayvalue("COc1ccc(Cn2c3c(c4cc(C)ccc4c2=O)C(OCC(C)C)c2ccccc2-3)cc1 (centres undefined)")
"Active"

* * *

system: SK-MEL-2; assay: Cytotoxicity against human SK-MEL-2 cells by SRB assay; type: functional, cell-based
measuredAttribute: pIC50
Keep it numeric: pIC50 is minus log10 of the concentration in mol/L.

Solved cases (8 shown):
>>> assayvalue("CCOC1c2ccccc2-c2c1c1cc(C)ccc1c(=O)n2Cc1ccc(OC)cc1 (stereo not given)")
5.44
>>> assayvalue("Cc1ccc2c(=O)n(C)c3c(c2c1)C(=O)c1ccccc1-3")
4.77
>>> assayvalue("COc1ccc(Cn2c3c(c4cc(C)ccc4c2=O)C(O)c2ccccc2-3)cc1 (stereo not given)")
3.74
>>> assayvalue("CCCOC1c2ccccc2-c2c1c1cc(C)ccc1c(=O)n2Cc1ccc(OC)cc1 (stereo not given)")
5.20
>>> assayvalue("CCCCOC1c2ccccc2-c2c1c1cc(C)ccc1c(=O)n2Cc1ccc(OC)cc1 (stereo not given)")
5.47
>>> assayvalue("COc1ccc(Cn2c3c(c4cc(C)ccc4c2=O)C(=O)c2ccccc2-3)cc1")
3.80
>>> assayvalue("COc1ccc(Cn2c3c(c4cc(C)ccc4c2=O)C(OC(C)C)c2ccccc2-3)cc1 (stereo not given)")
5.61
>>> assayvalue("CC[C@@]1(O)C(=O)OCc2c1cc1n(c2=O)Cc2cc3ccccc3nc2-1")
7.12

Q) Give reported pIC50 value for CCCOC1c2ccccc2-c2c1c1cc(C)ccc1c(=O)n2C (stereo not given)
A) 4.10

Q) Determine its reported pIC50: COc1ccc(Cn2c3c(c4cc(C)ccc4c2=O)C(OCC(C)C)c2ccccc2-3)cc1 (stereo not given)
A) 5.68

* * *

test: Cytotoxicity against human OV3 cells by SRB assay; assay type: functional, cell-based
# label = T if IC50 < 6 µM else F

Here's what some known entries look like.
>>> labelclass("CCCCOC1c2ccccc2-c2c1c1cc(C)ccc1c(=O)n2C (centres undefined)")
"F"
>>> labelclass("CCCOC1c2ccccc2-c2c1c1cc(C)ccc1c(=O)n2C (centres undefined)")
"F"
>>> labelclass("COc1ccc(Cn2c3c(c4cc(C)ccc4c2=O)C(OCC(C)C)c2ccccc2-3)cc1 (centres undefined)")
"T"

Now, please, on to the next molecule.
Q) Lab note: confirm whether the reported IC50 for this molecule is below 6 µM, equality not counting. molecule: CCCOC1c2ccccc2-c2c1c1cc(C)ccc1c(=O)n2Cc1ccc(OC)cc1 (centres undefined)
A) T

* * *

test system: A549; experiment: Cytotoxicity against human A549 cells by SRB assay; assay type: functional, cell-based
The label is TRUE for IC50 below 10 µM and FALSE for IC50 equal to or exceeding 10 µM.

Consider the worked cases shown below.
>>> labelclass("Cc1ccc2c(=O)n(C)c3c(c2c1)Cc1ccccc1-3")
"FALSE"
>>> labelclass("Cn1c2c(c3ccccc3c1=O)Cc1ccccc1-2")
"FALSE"
>>> labelclass("Cc1ccc2c(=O)n(C)c3c(c2c1)C(=O)c1ccccc1-3")
"FALSE"
>>> labelclass("Cc1ccc2c(=O)n(C)c3c(c2c1)C(OCC(C)C)c1ccccc1-3 (stereo unspecified)")
"FALSE"
>>> labelclass("COc1ccc(Cn2c3c(c4cc(C)ccc4c2=O)C(O)c2ccccc2-3)cc1 (stereo unspecified)")
"FALSE"
>>> labelclass("COc1ccc(Cn2c3c(c4cc(C)ccc4c2=O)C(=O)c2ccccc2-3)cc1")
"FALSE"

Q) Is the reported IC50 for COc1ccc(Cn2c3c(c4cc(C)ccc4c2=O)C(OCC(C)C)c2ccccc2-3)cc1 (stereo unspecified) strictly below 10 µM?
A) TRUE

Q) Please let me know if "CC[C@@]1(O)C(=O)OCc2c1cc1n(c2=O)Cc2cc3ccccc3nc2-1" shows IC50 below 10 µM.
A) TRUE

Q) Is it true that IC50 reported for COC1c2ccccc2-c2c1c1cc(C)ccc1c(=O)n2C (stereo unspecified) is less than 10 µM?
A) FALSE

Q) Below 10 µM on IC50? Entry "Cn1c2c(c3ccccc3c1=O)C(=O)c1ccccc1-2"
A) FALSE

Q) Say whether its IC50 is strictly beneath 10 µM. Entry: COc1ccc(Cn2c3c(c4cc(C)ccc4c2=O)C(OC(C)C)c2ccccc2-3)cc1 (stereo unspecified)
A) TRUE

* * *

Entries and their IC50 values follow.
test: Cytotoxicity against human OV3 cells by SRB assay; format: functional, cell-based
Field format: number, assumed µM, no unit text.

Answered examples (2):
>>> assayvalue("Cc1ccc2c(=O)n(C)c3c(c2c1)C(=O)c1ccccc1-3")
16.3
>>> assayvalue("CCCCCOC1c2ccccc2-c2c1c1cc(C)ccc1c(=O)n2C (stereo not given)")
13.3

Q) Give the reported IC50 for this molecule. "CC[C@@]1(O)C(=O)OCc2c1cc1n(c2=O)Cc2cc3ccccc3nc2-1"
A) 0.024

Q) Let me know recorded IC50 for COc1cccc2c1C(=O)c1c(O)c3c(c(O)c1C2=O)C[C@@](O)(C(=O)CO)C[C@@H]3O[C@H]1C[C@H](N)[C@H](O)[C@H](C)O1 (stereo in doubt) , thanks.
A) 1.17

Q) Could you please provide reported IC50 for "Cc1ccc2c(=O)n(C)c3c(c2c1)Cc1ccccc1-3" ? Thanks!
A) 261

Q) For the molecule "Cn1c2c(c3ccccc3c1=O)C(=O)c1ccccc1-2" , give its measured IC50 value.
A) 81

Q) In one line, give reported IC50 of the entry CCCCCOC1c2ccccc2-c2c1c1cc(C)ccc1c(=O)n2Cc1ccc(OC)cc1 (stereo not given) .
A) 5.7

Q) Output IC50 of CCOC1c2ccccc2-c2c1c1cc(C)ccc1c(=O)n2Cc1ccc(OC)cc1 (stereo not given)
A) 5.89

* * *

test system: A549; assay: Cytotoxicity against human A549 cells by SRB assay; type: functional, cell-based
measuredAttribute: pIC50
Units for pIC50: none; it is -log10 of a concentration expressed in mol/L.

As a guide, the following entries are already answered.
>>> assayvalue("COc1ccc(Cn2c3c(c4cc(C)ccc4c2=O)C(OC)c2ccccc2-3)cc1 (stereo not given)")
4.99
>>> assayvalue("CCOC1c2ccccc2-c2c1c1cc(C)ccc1c(=O)n2Cc1ccc(OC)cc1 (stereo not given)")
5.17
>>> assayvalue("CCCCCOC1c2ccccc2-c2c1c1cc(C)ccc1c(=O)n2Cc1ccc(OC)cc1 (stereo not given)")
4.95
>>> assayvalue("CCCCOC1c2ccccc2-c2c1c1cc(C)ccc1c(=O)n2Cc1ccc(OC)cc1 (stereo not given)")
5.49

Shift focus to the following entry.
Q) Print A549 pIC50 for CCCOC1c2ccccc2-c2c1c1cc(C)ccc1c(=O)n2C (stereo not given) .
A) 4.39

* * *

experiment: Cytotoxicity against human OV3 cells by SRB assay; format: functional, cell-based
pIC50: −log10 of the molar value.
Please mark yes if the recorded pIC50 is equal to or greater than 5, and no if it falls below.

>>> labelclass("COc1ccc(Cn2c3c(c4cc(C)ccc4c2=O)C(OC(C)C)c2ccccc2-3)cc1 (configuration not stated)")
"yes"
>>> labelclass("COc1ccc(Cn2c3c(c4cc(C)ccc4c2=O)Cc2ccccc2-3)cc1")
"no"
>>> labelclass("COc1ccc(Cn2c3c(c4cc(C)ccc4c2=O)C(=O)c2ccccc2-3)cc1")
"no"
>>> labelclass("CCCCOC1c2ccccc2-c2c1c1cc(C)ccc1c(=O)n2Cc1ccc(OC)cc1 (configuration not stated)")
"yes"

Q) Tell me whether pIC50 is at least 5 here: COc1ccc(Cn2c3c(c4cc(C)ccc4c2=O)C(OC)c2ccccc2-3)cc1 (configuration not stated)
A) yes

Q) Is reported pIC50 greater than or equal to 5 here: COC1c2ccccc2-c2c1c1cc(C)ccc1c(=O)n2C (configuration not stated)
A) no

Q) Textbook exercise: given the entry "Cn1c2c(c3ccccc3c1=O)Cc1ccccc1-2" , state whether its pIC50 is greater than or equal to 5.
A) no
